Provenance of the data: the supplement of paper PMC6089552

- Test system: A673/TR/shEF
- Assay details: cell viability (LOESS-normalised, relative to median of negative controls) (log2 ratio); higher = more viable cells (less compound effect), active = hit call of the paper (over 3 MAD below the median)
- Condition description: 2.5 µM; library screen: screen1; EWS-FLI1 expression: low (doxycycline-induced shRNA knockdown); treatment time: 72 h
The campaign covered roughly 3,200 compounds. About 300 (9.4%) showed activity. The full list was thinned out, with actives kept by preference.
Range-based classes on measured cell viability (log2): lower segment: < -0.02; middle segment: ≥ -0.02 and < 0.1; upper segment: ≥ 0.1

// below: answered compounds
Task item: Hi there! Could you help me figure out the category for c1ccc2c(c1)sc1ccccc12 please?
Reply: upper segment

Task item: Next entry: CC(C)[C@]12O[C@H]1[C@@H]1O[C@@]13[C@@]1(C)CCC4=C(COC4=O)[C@@H]1C[C@@H]1O[C@@]13C2=O
Reply: lower segment

Task item: What about C[C@]12CC[C@H]3[C@@H](CC[C@]4(O)C[C@@H](O)CC[C@]34C=O)[C@@]1(O)CC[C@@H]2C1=CC(=O)OC1 ?
Reply: lower segment

Continuing:
Task item: Just checking, what class would you give COc1c2c(cc3c1OCO3)CC[N+](C)=C2 here?
Reply: upper segment

Task item: What do you get for CN1C[C@@H](CO)C=C2c3cccc4[nH]cc(c34)C[C@@H]21 ?
Reply: middle segment

Task item: Repeat with OCC(O)Cc1ccc2c(c1)OCO2 (stereo not given)
Reply: upper segment

Task item: Another compound to check: CC1(C)C(=O)C=C[C@]2(C)C1=C(O)C(=O)[C@@]1(C)[C@H]2CC[C@]2(C)[C@@H](c3ccoc3)C[C@@H]3O[C@]312
Reply: middle segment

Task item: Try the compound CCOC(=O)NC1=C(N2CC2)C(=O)C(NC(=O)OCC)=C(N2CC2)C1=O
Reply: upper segment

Task item: Now the compound O=C(O)C1C2CCC(O2)C1C(=O)O (stereo not given)
Reply: lower segment

---

- Tested on: A673/TR/shEF
- Assay details: cell viability (LOESS-normalised, relative to median of negative controls) (log2 ratio); higher = more viable cells (less compound effect), active = hit call of the paper (over 3 MAD below the median)
- Condition description: 2.5 µM; library screen: screen1; EWS-FLI1 expression: high (no doxycycline); treatment time: 72 h
Among all 3,200 compounds or so, about 300 (9.4%) showed activity. This is one part of a sample in which actives are shown more often than they occur.
Overview of recorded cell viability (log2) for various molecules
Reply with just the number.

Task item: So what's the measured cell viability (log2) for this one? COP(=S)(OC)SCn1nnc2ccccc2c1=O
Reply: 0.00869

New cases:
Task item: // returns reported cell viability (log2) for input CC[S+]([O-])CCSP(=O)(OC)OC (centres undefined)
Reply: 0.119

Task item: Please do the same for CN(C)[C@@H]1C(=O)C(C(N)=O)=C(O)[C@@]2(O)C(=O)C3=C(O)c4c(O)cccc4[C@@](C)(O)[C@H]3C[C@@H]12 as well.
Reply: -0.0332

Task item: Thanks! And COc1cc2c(cc1-c1cc3cc4ccoc4cc3oc1=O)OCO2 ?
Reply: 0.0285

Task item: Param item: CC(C)=CCC[C@]1(C)C=Cc2c(O)c3c(c(CC=C(C)C)c2O1)O[C@]12C(=C[C@@H]4C[C@H]1C(C)(C)O[C@@]2(C/C=C(/C)C(=O)O)C4=O)C3=O
Reply: -1.16

Task item: Field entry: CN1C[C@@H](CO)C=C2c3cccc4[nH]cc(c34)C[C@@H]21
Reply: 0.076

Task item: Moving on to COc1nc(NC(C)C)nc(NC(C)C)n1
Reply: 0.104

Task item: Same lookup for COC(=O)/C(C)=C\CC12OC(C)(C)C3CC(C=C4C(=O)c5c(OC)c6c(c(CC=C(C)C)c5OC431)OC(C)(CCC=C(C)C)C=C6)C2=O (centres undefined) , please.
Reply: -4.2

Task item: Next record, please: CC(=O)O[C@@H]1C2CC[C@@H]3C1(C[C@@H](O)[C@@]1(O)[C@@H](C[C@H](O)C1(C)C)[C@]3(C)O)C[C@@]2(C)O (some centres undefined)
Reply: 0.0644

Task item: Now give it for COS(C)(=O)=O too.
Reply: 0.0611

Task item: Next molecule up: COc1cc2c(cc1OC)[C@@]13CCN4CC5=CCO[C@H]6CC(=O)N2[C@H]1[C@H]6[C@H]5C[C@H]43
Reply: 0.098

Task item: Further, for CC[C@@H](C)C(=O)O[C@H]1[C@H](O)[C@H]2[C@@H](CN3C[C@@H](C)CC[C@H]3[C@@]2(C)O)[C@@H]2C[C@]34O[C@]5(O)[C@@H](OC(=O)[C@@](C)(O)[C@@H](C)O)CC[C@@]3(C)[C@@H]5[C@@H](OC(C)=O)[C@@H](OC(C)=O)[C@H]4[C@@]21O ?
Reply: 0.068

Task item: Also need O=C(O)CNCP(=O)(O)O , thanks.
Reply: 0.124

Task item: Another molecule: O=S1OCC2C(CO1)C1(Cl)C(Cl)=C(Cl)C2(Cl)C1(Cl)Cl (centres undefined)
Reply: 0.0998
